All figures here come from patent US11534434B2.

measured.target: human M2 mAChR (Homo sapiens, UniProt P08172)
Construct: expressed in transfected cells
Sequence (P08172 whole entry): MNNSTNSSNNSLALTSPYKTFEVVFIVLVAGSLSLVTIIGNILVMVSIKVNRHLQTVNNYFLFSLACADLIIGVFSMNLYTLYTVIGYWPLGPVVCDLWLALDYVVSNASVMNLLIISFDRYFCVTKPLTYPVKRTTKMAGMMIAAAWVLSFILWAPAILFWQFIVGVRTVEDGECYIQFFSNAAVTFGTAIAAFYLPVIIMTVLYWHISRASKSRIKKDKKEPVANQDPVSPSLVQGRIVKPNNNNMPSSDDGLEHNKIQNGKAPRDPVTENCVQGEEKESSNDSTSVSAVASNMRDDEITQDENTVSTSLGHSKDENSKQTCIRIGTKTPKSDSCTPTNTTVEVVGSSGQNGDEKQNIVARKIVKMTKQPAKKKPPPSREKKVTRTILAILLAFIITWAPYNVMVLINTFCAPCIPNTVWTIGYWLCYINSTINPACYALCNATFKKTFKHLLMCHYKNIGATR
test.method.notes: Whole-cell functional agonist activity, phospho-ERK (pERK), CHOK1-based human M2 mAChR stable cell line
experimental.context: top of curve, % of min (DMSO) and max (10 mM Acetylcholine) responses
endpoint.label: M2 Top (%)
Give just the numeric value; % need not be written.

Recorded results for 2 compounds are shown here.
CCCCC(F)(F)COc1nsnc1C1=CCCN(C)C1; 0
CCC(F)(F)CCCOc1nsnc1C1=CCCN(C)C1; 1

Query: Could you tell me which M2 Top (%) is on file for CN1CCC=C(c2nsnc2OCCCCCCF)C1 ?
Response: 3

Query: Could you tell me which M2 Top (%) is on file for CCCCCCOc1nsnc1C1=CCCN(C)C1 [Xanomeline, reference compound] ?
Response: 1

Query: Could you tell me which M2 Top (%) is on file for CN1CCC=C(c2nsnc2OCCCCCC(F)F)C1 ?
Response: 2

Query: Could you tell me which M2 Top (%) is on file for CN1CCC=C(c2nsnc2OCCCCCC(F)(F)F)C1 ?
Response: 1

Query: Could you tell me which M2 Top (%) is on file for CN1CCC=C(c2nsnc2OCCCCC(C)(F)F)C1 ?
Response: 0

###

test.method.notes: Human liver microsome stability
Format: in vitro ADME
experimental.context: human liver microsomes, 100 nM, 37° C., tartrate salt
// reported Parent at 60 min (%) per item
Give just the numeric value; % need not be written.

Recorded results for 6 molecules are shown here.
CN1CCC=C(c2nsnc2OCCCCCC(F)(F)F)C1; 7
CCC(F)(F)CCCOc1nsnc1C1=CCCN(C)C1; 3
CN1CCC=C(c2nsnc2OCCCCC(C)(F)F)C1; 2
CCCC(F)(F)CCOc1nsnc1C1=CCCN(C)C1; 1
CCCCC(F)(F)COc1nsnc1C1=CCCN(C)C1; 7
CN1CCC=C(c2nsnc2OCCCCCC(F)F)C1; 8

Query: Could you tell me which Parent at 60 min (%) is on file for CN1CCC=C(c2nsnc2OCCCCCCF)C1 ?
Response: 3

###

// reported pEC50 per item
measured.target: human M1 mAChR (Homo sapiens)
Construct: expressed in transfected cells
Sequence (P11229 whole entry): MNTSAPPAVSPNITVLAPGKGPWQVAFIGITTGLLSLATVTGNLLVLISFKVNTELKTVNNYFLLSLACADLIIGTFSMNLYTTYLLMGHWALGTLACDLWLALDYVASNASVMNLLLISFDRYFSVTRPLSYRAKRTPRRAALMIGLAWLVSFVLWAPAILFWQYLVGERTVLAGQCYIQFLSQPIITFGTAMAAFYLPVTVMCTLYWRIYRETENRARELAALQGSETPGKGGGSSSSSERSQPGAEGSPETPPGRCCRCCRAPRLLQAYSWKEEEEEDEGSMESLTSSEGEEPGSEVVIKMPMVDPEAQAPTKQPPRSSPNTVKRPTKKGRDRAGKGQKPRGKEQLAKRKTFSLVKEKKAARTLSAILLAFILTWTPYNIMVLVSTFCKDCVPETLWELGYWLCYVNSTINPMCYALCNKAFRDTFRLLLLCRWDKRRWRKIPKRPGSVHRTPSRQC
test.method.notes: Whole-cell functional agonist activity, FLIPR Ca2+ release, U2OS-based human M1 mAChR stable cell line
experimental.context: agonist, FLIPR Ca2+ release, U2OS human M1 cells
pEC50 here: minus log base 10 of the concentration, concentration in moles per litre.

CCCC(F)(F)CCOc1nsnc1C1=CCCN(C)C1 [Example 10]; 8.38
CCCCC(F)(F)COc1nsnc1C1=CCCN(C)C1 [Example 11]; 7.54
CN1CCC=C(c2nsnc2OCCCCCC(F)(F)F)C1 [Example 1]; 8.43
CN1CCC=C(c2nsnc2OCCCCC(C)(F)F)C1 [Example 8]; 8.24
CN1CCC=C(c2nsnc2OCCCCCC(F)F)C1 [Example 6]; 8.60
CCC(F)(F)CCCOc1nsnc1C1=CCCN(C)C1 [Example 9]; 7.55

Moving on to another compound below.
Query: Could you tell me which pEC50 is on file for CN1CCC=C(c2nsnc2OCCCCCCF)C1 [Example 7] ?
Response: 8.51

###

test.method.notes: Human liver microsome stability
Assay type: in vitro ADME
experimental.context: human liver microsomes, 100 nM, 37° C., tartrate salt
// reported half-life at 100 nM per item
Give just the numeric value; min need not be written.

Recorded results for 6 molecules are shown here.
CCCC(F)(F)CCOc1nsnc1C1=CCCN(C)C1; 10
CCC(F)(F)CCCOc1nsnc1C1=CCCN(C)C1; 12
CN1CCC=C(c2nsnc2OCCCCC(C)(F)F)C1; 10
CCCCC(F)(F)COc1nsnc1C1=CCCN(C)C1; 3
CN1CCC=C(c2nsnc2OCCCCCCF)C1; 13
CN1CCC=C(c2nsnc2OCCCCCC(F)(F)F)C1; 16

Query: Could you tell me which half-life at 100 nM is on file for CN1CCC=C(c2nsnc2OCCCCCC(F)F)C1 ?
Response: 17
